Hey, just so you know, these numbers are from patent US20040087798A1.

Catalogue of melting point readings, one per entry.

The examples below pair each entry with its known result.
Cn1c(NCc2cccc(NC(=O)C=Cc3ccccc3Cl)c2)nc2ccccc21 [Example 43]: 188 to 191 °C
N=C(Nc1cc(Cl)cc(NC(=O)/C=C/c2c[nH]c3ccccc23)c1)c1ccccc1 [Example 205]: 184 to 187 °C
COc1ccc(F)cc1C(=N)Nc1cc(Cl)cc(NC(=O)/C=C/c2ccccc2C(F)(F)F)c1 [Example 30]: 213 to 214 °C
N=C(Nc1cccc(NC(=O)/C=C/c2ccccc2Cl)c1)c1ccccc1 [Example 54]: 262 to 264 °C
CS(=O)(=O)Nc1ccc(C(=N)Nc2cc(Cl)cc(NC(=O)/C=C/c3ccccc3Cl)c2)cc1 [Example 147]: 158 to 160 °C

(Q) So what's the measured melting point for this one? N=C(Nc1cc(Cl)cc(NC(=O)/C=C/c2ccccc2F)c1)c1ccccc1 [Example 138]
(A) 186 to 187 °C

(Q) N=C(Nc1cc(NC(=O)/C=C/c2ccccc2C(F)(F)F)ccc1Cl)c1ccccc1 [Example 145] , same question.
(A) 188 to 189 °C

(Q) Same question for N=C(Nc1cc(Cl)c(Cl)c(NC(=O)/C=C/c2ccccc2C(F)(F)F)c1)c1ccccc1 [Example 154] please.
(A) 213 to 214 °C

(Q) What about this compound? COc1ccc(NC(=N)c2ccccc2)cc1NC(=O)/C=C/c1ccccc1C(F)(F)F [Example 140]
(A) 208 to 210 °C

(Q) // query: Cc1ccc(/C=C/C(=O)Nc2cccc(NC(=N)c3ccccc3)c2)cc1 [Example 38]
(A) 147 to 149 °C

(Q) Next compound up: N=C(Nc1ccc(F)c(NC(=O)/C=C/c2ccccc2Cl)c1)c1ccccc1 [Example 17]
(A) 189 to 191 °C

(Q) // repeat for O=C(C=Cc1ccccc1Cl)Nc1cccc(CNc2ccc3ccccc3n2)c1 [Example 50] and report
(A) 170 to 171 °C

(Q) Same question, O=C(C=Cc1ccccc1Cl)Nc1ccc(NCc2ccccn2)nc1 [Example 44] this time
(A) 164 to 165 °C

(Q) Moving on to the next compound: N#Cc1ccccc1/C=C/C(=O)Nc1cc(Cl)cc(NC(=N)c2ccccc2)c1 [Example 67]
(A) 220 to 221 °C

(Q) Entry to check: N=C(Nc1cc(Cl)cc(NC(=O)/C=C/c2ccccc2C(F)(F)F)c1)c1ccccc1F [Example 148]
(A) 209 to 210 °C

(Q) Next: N=C(Nc1cccc(NC(=O)/C=C/c2ccc(Cl)cc2)c1)c1ccccc1 [Example 47]
(A) 109 to 110 °C

(Q) Also check N=C(Nc1cc(Cl)cc(NC(=O)/C=C/c2ccccc2C(F)(F)F)c1)c1ccccc1 [Example 35]
(A) 137 to 139 °C
